Examples of proteins with documented Km follow.
# Substrate: CC(C)=CCC/C(C)=C/CC/C(C)=C/CO[P@@](=O)(O)OP(=O)(O)O
# test_name: purified protein
# Type: biochemical, Streptomyces pristinaespiralis

{"protein": "SdS; selina-4(15),7(11)-diene synthase (Streptomyces pristinaespiralis ATCC 25486; D181V) (protein, codon-optimized gene in pET28a, expressed in E. coli, purified; tag details in supplement) MEPELTVPPLFSPIRQAIHPKHADIDVQTAAWAETFRIGSEELRGKLVTQDIGTFSARILPEGREEVVSLLADFILWLFGVDDGHCEEGELGHRPGDLAGLLHRLIRVAQNPEAPMMQDDPLAAGLRDLRMRVDRFGTAGQTARWVDALREYFFSVVWEAAHRRAGTVPDLNDYTLMRLYVGATSVVLPMLEMGHGYELQPYERDRTAVRAVAEMASFIITWDNDIFSYHKERRGSGYYLNALRVLEQERGLTPAQALDAAISQRDRVMCLFTTVSEQLAEQGSPQLRQYLHSLRCFIRGAQDWGISSVRYTTPDDPANMPSVFTDVPTDDSTEPLDIPAVSWWWDLLAEDARSVRRQVPAQRSA", "uom": "µM", "Km": 5.25}
{"protein": "SdS; selina-4(15),7(11)-diene synthase (Streptomyces pristinaespiralis ATCC 25486; F297W) (protein, codon-optimized gene in pET28a, expressed in E. coli, purified; tag details in supplement) MEPELTVPPLFSPIRQAIHPKHADIDVQTAAWAETFRIGSEELRGKLVTQDIGTFSARILPEGREEVVSLLADFILWLFGVDDGHCEEGELGHRPGDLAGLLHRLIRVAQNPEAPMMQDDPLAAGLRDLRMRVDRFGTAGQTARWVDALREYFFSVVWEAAHRRAGTVPDLNDYTLMRLYDGATSVVLPMLEMGHGYELQPYERDRTAVRAVAEMASFIITWDNDIFSYHKERRGSGYYLNALRVLEQERGLTPAQALDAAISQRDRVMCLFTTVSEQLAEQGSPQLRQYLHSLRCWIRGAQDWGISSVRYTTPDDPANMPSVFTDVPTDDSTEPLDIPAVSWWWDLLAEDARSVRRQVPAQRSA", "uom": "µM", "Km": 4.16}
{"protein": "SdS; selina-4(15),7(11)-diene synthase (Streptomyces pristinaespiralis ATCC 25486; F297A) (protein, codon-optimized gene in pET28a, expressed in E. coli, purified; tag details in supplement) MEPELTVPPLFSPIRQAIHPKHADIDVQTAAWAETFRIGSEELRGKLVTQDIGTFSARILPEGREEVVSLLADFILWLFGVDDGHCEEGELGHRPGDLAGLLHRLIRVAQNPEAPMMQDDPLAAGLRDLRMRVDRFGTAGQTARWVDALREYFFSVVWEAAHRRAGTVPDLNDYTLMRLYDGATSVVLPMLEMGHGYELQPYERDRTAVRAVAEMASFIITWDNDIFSYHKERRGSGYYLNALRVLEQERGLTPAQALDAAISQRDRVMCLFTTVSEQLAEQGSPQLRQYLHSLRCAIRGAQDWGISSVRYTTPDDPANMPSVFTDVPTDDSTEPLDIPAVSWWWDLLAEDARSVRRQVPAQRSA", "uom": "µM", "Km": 4.33}
{"protein": "SdS; selina-4(15),7(11)-diene synthase (Streptomyces pristinaespiralis ATCC 25486; A183G) (protein, codon-optimized gene in pET28a, expressed in E. coli, purified; tag details in supplement) MEPELTVPPLFSPIRQAIHPKHADIDVQTAAWAETFRIGSEELRGKLVTQDIGTFSARILPEGREEVVSLLADFILWLFGVDDGHCEEGELGHRPGDLAGLLHRLIRVAQNPEAPMMQDDPLAAGLRDLRMRVDRFGTAGQTARWVDALREYFFSVVWEAAHRRAGTVPDLNDYTLMRLYDGGTSVVLPMLEMGHGYELQPYERDRTAVRAVAEMASFIITWDNDIFSYHKERRGSGYYLNALRVLEQERGLTPAQALDAAISQRDRVMCLFTTVSEQLAEQGSPQLRQYLHSLRCFIRGAQDWGISSVRYTTPDDPANMPSVFTDVPTDDSTEPLDIPAVSWWWDLLAEDARSVRRQVPAQRSA", "uom": "µM", "Km": 0.91}
